Experiment: chemical genetic growth profiling, strain panel (AID 1159580);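 note: tested at 20 µM; growth read once vehicle control cultures reached saturation at 30 °C; 1 = growth at the plate median or of vehicle wells; lower values mean less growth of the strain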
Conditions: S. cerevisiae deletion strains, growth OD, locus YPR167C, strain met16, hits give low values
In all, about 5,500 compounds went through this assay and about 2,000 (36%) were called active. About 18% were inconclusive and are not listed. Some of the results follow.
Result Type: normalized growth
Give only the figure.

Known results for compounds:
Compound	Result Type	Readout Number
CC1OC(O[C@H]2/C=C/C=C/C=C/C=C/C=C/C=C/C=C/[C@H](C)[C@@H](O)[C@@H](C)[C@H](C)OC(=O)CC(O)CC(O)CCC(O)C(O)CC(O)C[C@]3(O)C[C@H](O)C(C(=O)O)C(C2)O3)C(O)[C@H](N)C1O (stereo partly drawn)	normalized growth	1.03
Clc1ccc(C(c2ccccc2Cl)C(Cl)Cl)cc1 (stereo not drawn)	normalized growth	0.989

Summary for this compound, `Cc1cc(CC(=O)O)n(C)c1C(=O)c1ccc(Cl)cc1` : normalized growth is 1

Summary for this compound, CC1[C@H](C)OC(=O)CC(O)CC(O)CC(O)CCC(O)C(O)C[C@]2(O)CC(O)C(C(=O)O)C(CC(OC3O[C@H](C)[C@@H](O)[C@H](N)[C@@H]3O)/C=C/C=C/C=C/C=C/CC/C=C/C=C/[C@H](C)[C@H]1O)O2 (stereo partly drawn) : normalized growth is 0.0932

Summary for this compound, `NC(N)=NCCN1CCCCCCC1` : normalized growth is 1.02

Summary for this compound, Clc1ccc(COC(Cn2ccnc2)c2ccc(Cl)cc2Cl)c(Cl)c1 (stereo not drawn) : normalized growth is 0.0606

Summary for this compound, `FC(F)(F)c1cccc(N2CCNCC2)c1` : normalized growth is 0.988

Summary for this compound, NC(=O)NC1NC(=O)NC1=O (stereo not drawn) : normalized growth is 0.979

Summary for this compound, C[C@]12CCC3C(CC[C@H]4C[C@H](O)CC[C@]34C)C1CC[C@@H]2O (stereo partly drawn) : normalized growth is 0.956
